Assay: Solubility of ACP in surfactant solutions
Type: physicochemical
Conditions: aqueous surfactant solution (Tween 80), aqueous with cosolvent or surfactant or cyclodextrin, 1% w/v solution of T80; read-out: solubility of ACP
attribute.measured: solubility

## Task What value of solubility has been reported for the following molecule? CC#CC(=O)N1CCC[C@H]1c1nc(-c2ccc(C(=O)Nc3ccccn3)cc2)c2c(N)nccn12 [ACP, Acalabrutinib]
## Result < 0.1 µg/mL

* * *

Experiment: Solubility of ACP in surfactant solutions
Type: physicochemical
Conditions: aqueous surfactant solution (Tween 80), aqueous with cosolvent or surfactant or cyclodextrin, Tween 80 (T80) 2 % w/v; read-out: ACP solubility
attribute.measured: solubility (µg/mL)
Give bare numbers, in µg/mL.

## Task What value of solubility has been reported for the following compound? CC#CC(=O)N1CCC[C@H]1c1nc(-c2ccc(C(=O)Nc3ccccn3)cc2)c2c(N)nccn12
## Result 0.194
